Provenance of the data: paper PMC5496578

target: human placental 17β-HSD1 (Homo sapiens, UniProt P14061); experiment: in vitro radiosubstrate incubation, 17β-HSD1 inhibition (estrone to 17β-estradiol conversion); assay type: biochemical
assay_metric: IC50 (nM)
Kindly answer with a numeric value in nM, unit omitted.

Use these answered entries as a reference point.
- chemical_smiles: "COc1ccc(C#Cc2cc3c(cc2O)CC[C@@H]2[C@@H]3CC[C@@]3(C)C(=O)CC[C@@H]23)cc1"
  IC50, nM: 230
- chemical_smiles: "Cc1ccc(C#Cc2cc3c(cc2O)CC[C@@H]2[C@@H]3CC[C@@]3(C)C(=O)CC[C@@H]23)cc1"
  IC50, nM: 1400
- chemical_smiles: "COc1ccc(CCc2cc3c(cc2O)CC[C@@H]2[C@@H]3CC[C@@]3(C)C(=O)CC[C@@H]23)cc1"
  IC50, nM: 470

Lab book: IC50 of C[C@@]12CC[C@@H]3c4cc(C#Cc5ccc(C(F)(F)F)cc5)c(O)cc4CC[C@H]3[C@@H]1CCC2=O noted as 930

Lab book: IC50 of C[C@@]12CC[C@@H]3c4cc(C#Cc5ccccc5)c(O)cc4CC[C@H]3[C@@H]1CCC2=O noted as 150

Lab book: IC50 of C[C@@]12CC[C@@H]3c4cc(C#Cc5ccc(F)cc5)c(O)cc4CC[C@H]3[C@@H]1CCC2=O noted as 300

---

Biological target: human placental 17β-HSD1 (Homo sapiens)
Sequence (P14061 1-328): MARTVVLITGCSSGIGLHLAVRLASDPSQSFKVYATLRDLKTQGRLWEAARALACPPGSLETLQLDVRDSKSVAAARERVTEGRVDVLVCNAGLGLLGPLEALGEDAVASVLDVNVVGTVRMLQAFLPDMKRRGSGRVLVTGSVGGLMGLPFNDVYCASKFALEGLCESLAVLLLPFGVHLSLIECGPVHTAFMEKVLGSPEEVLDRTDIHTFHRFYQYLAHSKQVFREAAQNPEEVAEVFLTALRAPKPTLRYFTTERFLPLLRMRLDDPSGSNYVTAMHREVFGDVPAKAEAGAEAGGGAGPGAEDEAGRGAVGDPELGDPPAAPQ
Test: in vitro radiosubstrate incubation, 17β-HSD1 inhibition (estrone to 17β-estradiol conversion)
Type: biochemical
Settings: read-out: Relative conversion ± SD
assay_metric: remaining activity at 10 µM (%)
Kindly answer with a numeric value in %, unit omitted.

Use these answered entries as a reference point.
- compound: "COc1ccc(CCc2cc3c(cc2OC)CC[C@@H]2[C@@H]3CC[C@@]3(C)C(=O)CC[C@@H]23)cc1"
  quantity_unit: "%"
  remaining activity at 10 µM: 63
- compound: "COc1cc2c(cc1C#Cc1ccc(C(F)(F)F)cc1)[C@H]1CC[C@@]3(C)C(=O)CC[C@H]3[C@@H]1CC2"
  quantity_unit: "%"
  remaining activity at 10 µM: 76
- compound: "COc1ccc2c(c1C#Cc1ccc(F)cc1)CC[C@@H]1[C@@H]2CC[C@@]2(C)C(=O)CC[C@@H]12 [Compound 11d]"
  quantity_unit: "%"
  remaining activity at 10 µM: 83

Lab book: remaining activity at 10 µM of COc1ccc(CCc2c(O)ccc3c2CC[C@@H]2[C@@H]3CC[C@@]3(C)C(=O)CC[C@@H]23)cc1 noted as 98

Lab book: remaining activity at 10 µM of C[C@@]12CC[C@@H]3c4ccc(O)c(C#Cc5ccc(C(F)(F)F)cc5)c4CC[C@H]3[C@@H]1CCC2=O [Compound 10e] noted as 85

Lab book: remaining activity at 10 µM of COc1ccc(-c2cc3c4c(ccc3o2)[C@H]2CC[C@@]3(C)C(=O)CC[C@H]3[C@@H]2CC4)cc1 noted as 102

Lab book: remaining activity at 10 µM of COc1ccc(/C=C/c2c(OC)ccc3c2CC[C@@H]2[C@@H]3CC[C@@]3(C)C(=O)CC[C@@H]23)cc1 noted as 80

Lab book: remaining activity at 10 µM of COc1ccc(-c2cc3cc4c(cc3o2)CC[C@@H]2[C@@H]4CC[C@@]3(C)C(=O)CC[C@@H]23)cc1 noted as 92

---

Target: UniProtKB P14061
Sequence (P14061 1-328): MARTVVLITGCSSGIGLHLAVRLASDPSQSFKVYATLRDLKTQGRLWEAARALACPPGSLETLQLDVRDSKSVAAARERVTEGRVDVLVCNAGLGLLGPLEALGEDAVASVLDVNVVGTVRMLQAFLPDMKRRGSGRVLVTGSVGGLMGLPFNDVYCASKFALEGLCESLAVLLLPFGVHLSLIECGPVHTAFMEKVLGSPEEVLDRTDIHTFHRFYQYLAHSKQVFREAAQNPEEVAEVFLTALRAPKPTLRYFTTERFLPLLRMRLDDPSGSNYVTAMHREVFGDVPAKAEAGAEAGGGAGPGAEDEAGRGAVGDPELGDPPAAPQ
Assay: in vitro radiosubstrate incubation, 17β-HSD1 inhibition (estrone to 17β-estradiol conversion)
Type: biochemical
Details: read-out: Relative conversion ± SD
Quick reference for remaining activity at 10 µM among some compounds
Kindly answer with a numeric value in %, unit omitted.

Use these answered entries as a reference point.
- compound: "COc1ccc(C#Cc2cc3c(cc2OC)CC[C@@H]2[C@@H]3CC[C@@]3(C)C(=O)CC[C@@H]23)cc1"
  quantity_unit: "%"
  remaining activity at 10 µM: 85
- compound: "C[C@@]12CC[C@@H]3c4ccc(O)c(C#Cc5ccccc5)c4CC[C@H]3[C@@H]1CCC2=O [Compound 10a]"
  quantity_unit: "%"
  remaining activity at 10 µM: 92

Lab book: remaining activity at 10 µM of COc1cc2c(cc1C#Cc1ccccc1)[C@H]1CC[C@@]3(C)C(=O)CC[C@H]3[C@@H]1CC2 noted as 88

Lab book: remaining activity at 10 µM of COc1ccc2c(c1C#Cc1ccc(C(F)(F)F)cc1)CC[C@@H]1[C@@H]2CC[C@@]2(C)C(=O)CC[C@@H]12 [Compound 11e] noted as 79

Lab book: remaining activity at 10 µM of C[C@@]12CC[C@@H]3c4ccc(O)c(C#Cc5ccc(F)cc5)c4CC[C@H]3[C@@H]1CCC2=O [Compound 10d] noted as 96

Lab book: remaining activity at 10 µM of Cc1ccc(C#Cc2c(O)ccc3c2CC[C@@H]2[C@@H]3CC[C@@]3(C)C(=O)CC[C@@H]23)cc1 [Compound 10b] noted as 89

Lab book: remaining activity at 10 µM of COc1ccc(C#Cc2c(O)ccc3c2CC[C@@H]2[C@@H]3CC[C@@]3(C)C(=O)CC[C@@H]23)cc1 [Compound 10c] noted as 91

---

target: human placental 17β-HSD1 (Homo sapiens); test: in vitro radiosubstrate incubation, 17β-HSD1 inhibition (estrone to 17β-estradiol conversion); assay type: biochemical; details: read-out: Relative conversion ± SD
Quick reference for remaining activity at 10 µM among some molecules
Kindly answer with a numeric value in %, unit omitted.

Lab book: remaining activity at 10 µM of COc1ccc(/C=C\c2cc3c(cc2OC)CC[C@@H]2[C@@H]3CC[C@@]3(C)C(=O)CC[C@@H]23)cc1 noted as 70

Lab book: remaining activity at 10 µM of COc1ccc2c(c1C#Cc1ccccc1)CC[C@@H]1[C@@H]2CC[C@@]2(C)C(=O)CC[C@@H]12 [Compound 11a] noted as 92

Lab book: remaining activity at 10 µM of COc1cc2c(cc1C#Cc1ccc(C)cc1)[C@H]1CC[C@@]3(C)C(=O)CC[C@H]3[C@@H]1CC2 noted as 84

Lab book: remaining activity at 10 µM of COc1ccc2c(c1C#Cc1ccc(C)cc1)CC[C@@H]1[C@@H]2CC[C@@]2(C)C(=O)CC[C@@H]12 [Compound 11b] noted as 52

---

Target: human placental 17β-HSD1 (Homo sapiens)
Sequence (P14061 1-328): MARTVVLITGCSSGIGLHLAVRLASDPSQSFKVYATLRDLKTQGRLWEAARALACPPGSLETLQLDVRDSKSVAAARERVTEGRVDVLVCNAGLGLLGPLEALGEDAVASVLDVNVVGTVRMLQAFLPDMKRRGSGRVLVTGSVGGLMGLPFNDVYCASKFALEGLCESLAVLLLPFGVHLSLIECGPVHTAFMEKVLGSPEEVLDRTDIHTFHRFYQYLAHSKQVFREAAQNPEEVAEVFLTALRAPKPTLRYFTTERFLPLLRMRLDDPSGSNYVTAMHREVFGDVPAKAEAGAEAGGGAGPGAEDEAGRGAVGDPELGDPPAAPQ
Assay: in vitro radiosubstrate incubation, 17β-HSD1 inhibition (estrone to 17β-estradiol conversion)
Format: biochemical
Conditions: read-out: Relative conversion ± SD
Quick reference for remaining activity at 10 µM among some molecules

Use these answered entries as a reference point.
- molecule: "COc1cc2c(cc1C#Cc1ccc(F)cc1)[C@H]1CC[C@@]3(C)C(=O)CC[C@H]3[C@@H]1CC2"
  assay_metric: "remaining activity at 10 µM"
  measured_value: "94%"
- molecule: "COc1ccc(CCc2c(OC)ccc3c2CC[C@@H]2[C@@H]3CC[C@@]3(C)C(=O)CC[C@@H]23)cc1"
  assay_metric: "remaining activity at 10 µM"
  measured_value: "94%"

Let us examine a further case.
Lab book: remaining activity at 10 µM of COc1ccc(C#Cc2c(OC)ccc3c2CC[C@@H]2[C@@H]3CC[C@@]3(C)C(=O)CC[C@@H]23)cc1 [Compound 11c] noted as 83%
